# credit: patent US20240262866A1

# experiment.description: Pharmacokinetic study after single intravenous injection
# Type: in vivo, SD rats
# experimental.conditions: Sprague-Dawley, rat, plasma, female SD rats, 10 mg/kg i.v.
property: half-life (h)
# output: bare number, implied unit h

Given the compound CCCCCOc1ccc(-c2ccc(-c3ccc(C(=O)N[C@H]4C[C@@H](O)[C@@H](OC[C@H]5CCC[N+]5(C)C)NC(=O)[C@@H]5[C@@H](O)[C@@H](C)CN5C(=O)[C@H]([C@@H](C)O)NC(=O)[C@H]([C@H](O)[C@@H](O)c5ccc(O)cc5)NC(=O)[C@@H]5C[C@@H](O)CN5C(=O)[C@H]([C@@H](C)O)NC4=O)cc3)cc2)cc1 [Compound of formula (I)] , what is its reported half-life?
25.5
